Provide the reported abundance fitness of each item.
B1: Homeobox protein cut-like 1, residues 548 to 629; numbered along this chain, P39880 (parent)
chain: GEEMDTAEIARQVKEQLIKHNIGQRIFGHYVLGLSQGSVSEILARPKPWNKLTVRGKEPFHKMKQFLSDEQNILALRSIQGR

Variants of: B1
procedure_summary: abundance fitness (aPCA) (normalised: wild type 0, dead -1); higher = more abundant; growth selection in yeast, the domain comes from the species named
condition_parameters: Homo sapiens
Response field accepts a number only; no unit should be typed.

Prompt: Which abundance fitness value is on record for E58D ?
Response: -0.105

Prompt: Which abundance fitness value is on record for I22C ?
Response: -0.491

Prompt: Which abundance fitness value is on record for L34A ?
Response: -0.228

Prompt: Which abundance fitness value is on record for R45H ?
Response: 0.103

Prompt: Which abundance fitness value is on record for Q80G ?
Response: -0.06

Prompt: Which abundance fitness value is on record for L76C ?
Response: -0.484

Prompt: Which abundance fitness value is on record for K57V ?
Response: -0.455

Prompt: Which abundance fitness value is on record for L43M ?
Response: -0.235

Prompt: Which abundance fitness value is on record for K62V ?
Response: -0.307

Prompt: Which abundance fitness value is on record for L43A ?
Response: -0.772

Prompt: Which abundance fitness value is on record for Q80I ?
Response: -0.098
